These entries and their values trace back to patent US5468758A.

ASSAY PROCEDURE: Moisture sorption/desorption studies (hygrostat, storage at different temperatures and relative humidity)
Assay type: physicochemical
ASSAY SETUP: 37° C., 75% RH, 4 h

| COMPOUND | MEASURE UNIT | water content (Table III) |
| --- | --- | --- |
| CN1C2CCC1CC(NC(=O)n1c(=O)[nH]c3ccccc31)C2 (stereo not shown) [Compound 1a, reference compound] | % | 0.39 |

---

ASSAY PROCEDURE: Moisture sorption/desorption studies (hygrostat, storage at different temperatures and relative humidity)
Type: physicochemical
ASSAY SETUP: Room Temperature, 75% RH, 6 h; hydrochloride monohydrate
Where a name gives a salt, the structure may show the parent alone.
MEASUREMENT KIND: water content (Table III) (%)

| MOLECULE | MEASUREMENT KIND | EXPERIMENTAL VALUE |
| --- | --- | --- |
| CN1C2CCC1CC(NC(=O)n1c(=O)[nH]c3ccccc31)C2 (stereo not shown) [Compound 2a, hydrochloride monohydrate] | water content (Table III) | 5.37 |
